Data origin: patent US6825230B2

- Test system: ANKA strain of P. berghei
- assayProcedure: Single dose STI in vivo screen in infected mice
- Parameters: species or system Plasmodium berghei
- runConditions: single 10 mg/kg po in SSV; untreated 6-7 days
Structures can show the parent of a compound that is named as a salt.
Lab note: anything with Survival (days) 10 mg/kg SSV po below 8 days is marked rule met; values at 8 days or higher are marked rule not met.

- molecule: "CCOC(=O)CCNCC1CCC2(CC1)OOC1(O2)C2CC3CC(C2)CC1C3.Cc1ccc(S(=O)(=O)O)cc1 (stereo not shown)"
  target: "ANKA strain of P. berghei"
  classAssignment: "rule not met"

Dear reviewer, please state whether CCOC(=O)c1ccc(C2(c3ccc(C(=O)OCC)cc3)OOC3(O2)C2CC4CC(C2)CC3C4)cc1 (stereo not shown) has Survival (days) 10 mg/kg SSV po strictly beneath 8 days.
rule met

Dear reviewer, please state whether COC(=O)c1ccc(C2(c3ccccc3)OOC3(O2)C2CC4CC(C2)CC3C4)cc1 (stereo not shown) has Survival (days) 10 mg/kg SSV po strictly beneath 8 days.
rule met

Dear reviewer, please state whether O=C(O)c1ccc(OC[C@H]2CC[C@]3(CC2)OOC2(O3)C3CC4CC(C3)CC2C4)cc1 (stereo partly shown) has Survival (days) 10 mg/kg SSV po strictly beneath 8 days.
rule met

Dear reviewer, please state whether CCN(CC)CC[C@H]1CC[C@]2(CC1)OOC1(O2)C2CC3CC(C2)CC1C3 (stereo partly shown) [OZ126, hydrobromide] has Survival (days) 10 mg/kg SSV po strictly beneath 8 days.
rule met

----------
Collected Survival (days) 10 mg/kg sc values appear next to each entry.
- System: ANKA strain of P. berghei
- assayProcedure: Single dose STI in vivo screen in infected mice
- Parameters: species or system Plasmodium berghei
- runConditions: single 10 mg/kg sc in 3% ethanol and 7% Tween 80; untreated 6-7 days
Structures can show the parent of a compound that is named as a salt.
Response body: numeric value in days, unit text excluded.

Please review the entries below; each comes with its answer.
- compound: "COC(=O)C1(c2ccccc2)CCC2(CC1)OOC1(O2)C2CC3CC(C2)CC1C3 (centres unmarked)"
  propertyLabel: "Survival (days) 10 mg/kg sc"
  numericResult: 7.3
- compound: "OC[C@H]1CC[C@]2(CC1)OOC1(O2)C2CC3CC(C2)CC1C3 (some centres unmarked)"
  propertyLabel: "Survival (days) 10 mg/kg sc"
  numericResult: 8.3
- compound: "CC1(C)C2CCC1(CS(=O)(=O)N1CCC3(CC1)OOC1(O3)C3CC4CC(C3)CC1C4)C(=O)C2 (centres unmarked)"
  propertyLabel: "Survival (days) 10 mg/kg sc"
  numericResult: 7.3
- compound: "O=C(N1CCOCC1)N1CCC2(CC1)OOC1(O2)C2CC3CC(C2)CC1C3 (centres unmarked)"
  propertyLabel: "Survival (days) 10 mg/kg sc"
  numericResult: 9.0
- compound: "COC(=O)c1ccc(C2(c3ccc(C(=O)OC)c(C(=O)OC)c3)OOC3(O2)C2CC4CC(C2)CC3C4)cc1C(=O)OC (centres unmarked)"
  propertyLabel: "Survival (days) 10 mg/kg sc"
  numericResult: 5.3

Name the reported Survival (days) 10 mg/kg sc value associated with the compound O=C1c2ccccc2C(=O)N1CC1(c2ccccc2)CCC2(CC1)OOC1(O2)C2CC3CC(C2)CC1C3 (centres unmarked)
7.0

Name the reported Survival (days) 10 mg/kg sc value associated with the compound NC(=O)C(=O)NC[C@H]1CC[C@]2(CC1)OOC1(O2)C2CC3CC(C2)CC1C3 (some centres unmarked)
9.7

Name the reported Survival (days) 10 mg/kg sc value associated with the compound C1CC1CNC1CCC2(CC1)OOC1(O2)C2CC3CC(C2)CC1C3 (centres unmarked) [OZ184, hydrochloride]
8.7

----------
Collected Adult worms day 49, per os 400 mg/kg, DEAD WORM (%) values appear next to each entry.
- Tested on: Schistosoma mansoni adult worms (49-day-old)
- assayProcedure: Effect on adult schistosomes (49-day-old) in infected mice
- Type: in vivo
- runConditions: single 400 mg/kg per os; percentage of dead worm in the liver

- compound: "C1C2CC3CC1CC(C2)C31OOC2(O1)C1CC3CC(C1)CC2C3 (stereo not shown)"
  result: "0/0%"
- compound: "CC(C)(N)CNC(=O)C[C@H]1CC[C@]2(CC1)OO[C@]1(O2)C2CC3CC(C2)CC1C3"
  result: "0/0%"
- compound: "O=C1C2C3CC4C5C3C1C5C1(OOC3(O1)C1CC5CC(C1)CC3C5)C42 (stereo not shown)"
  result: "0/0%"
- compound: "O=[N+]([O-])c1ccc(NN=C2CCC3(CC2)OOC2(O3)C3CC4CC(C3)CC2C4)c([N+](=O)[O-])c1 (stereo not shown)"
  result: "0/0%"
- compound: "CC1(C)COC2(CCC3(CC2)OOC2(CC(C)(C)CC(C)(C)C2)O3)OC1"
  result: "0/0%"

Attention now turns to another entry.
Name the reported Adult worms day 49, per os 400 mg/kg, DEAD WORM (%) value associated with the compound c1ccc2c(c1)COC1(CCC3(CC1)OOC1(O3)C3CC4CC(C3)CC1C4)OC2 (stereo not shown)
4/4%

----------
- Test system: ANKA strain of P. berghei
- assayProcedure: Single dose STI in vivo screen in infected mice
- Set-up: species or system Plasmodium berghei
- runConditions: single 10 mg/kg sc in 3% ethanol and 7% Tween 80; untreated 6-7 days
Collected Survival (days) 10 mg/kg sc values appear next to each entry.
Response body: numeric value in days, unit text excluded.

- molecule: "C1C2CC3CC1CC(C2)C31OOC2(CCC3(CC2)OOC2(O3)C3CC4CC(C3)CC2C4)O1 (stereo not drawn) [OZ169]"
  propertyLabel: "Survival (days) 10 mg/kg sc"
  numericResult: 9.0

Attention now turns to another entry.
Name the reported Survival (days) 10 mg/kg sc value associated with the molecule O=C(C[C@H]1CC[C@]2(CC1)OOC1(O2)C2CC3CC(C2)CC1C3)N1CCCCC1 (stereo partly drawn) [OZ218]
9.0

----------
Collected Adult worms day 49, per os 400 mg/kg, DEAD WORM (%) values appear next to each entry.
- System: Schistosoma mansoni adult worms (49-day-old)
- assayProcedure: Effect on adult schistosomes (49-day-old) in infected mice
- Assay type: in vivo
- runConditions: single 400 mg/kg per os; percentage of dead worm in the liver

- molecule: "CC(C)(C)C1CCC2(CC1)OOC1(O2)C2CC3CC(C2)CC1C3 (stereo not shown)"
  target: "Schistosoma mansoni adult worms (49-day-old)"
  result: "0/0%"
- molecule: "C1CCC2(CC1)OOC1(O2)C2CC3CC(C2)CC1C3 (stereo not shown)"
  target: "Schistosoma mansoni adult worms (49-day-old)"
  result: "8%"
- molecule: "O=C1CCC2(CC1)OOC1(CCCCCCCCCCC1)O2"
  target: "Schistosoma mansoni adult worms (49-day-old)"
  result: "0/0%"

Attention now turns to another entry.
Name the reported Adult worms day 49, per os 400 mg/kg, DEAD WORM (%) value associated with the molecule C1CCCCCC2(CCCCC1)OOC1(O2)C2CC3CC(C2)CC1C3 (stereo not shown)
0/0%

----------
Collected Survival (days) 10 mg/kg sc values appear next to each entry.
- Tested on: ANKA strain of P. berghei
- assayProcedure: Single dose STI in vivo screen in infected mice
- Design: species or system Plasmodium berghei
- runConditions: single 10 mg/kg sc in 3% ethanol and 7% Tween 80; untreated 6-7 days
- Description: In the single dose STI in vivo screen, Moro SPF or NMRI mice infected with the ANKA strain of P. berghei (groups of three mice) were treated on day one post-infection with trioxolanes dissolved or suspended in 3% ethanol and 7% Tween 80. […] Antimalarial activity was measured by percent reduction in parasitemia on day three post-infection and survival times compared to an untreated control group. […]
Response body: numeric value in days, unit text excluded.

- compound: "[N-]=[N+]=NCC[C@H]1CC[C@]2(CC1)OOC1(O2)C2CC3CC(C2)CC1C3 (some centres unmarked)"
  target: "ANKA strain of P. berghei"
  propertyLabel: "Survival (days) 10 mg/kg sc"
  numericResult: 14.0
- compound: "O=C(N1CCCC1)N1CCC2(CC1)OOC1(O2)C2CC3CC(C2)CC1C3 (centres unmarked)"
  target: "ANKA strain of P. berghei"
  propertyLabel: "Survival (days) 10 mg/kg sc"
  numericResult: 9.7

Name the reported Survival (days) 10 mg/kg sc value associated with the compound O=S(=O)(c1cccc2cccnc12)N1CCC2(CC1)OOC1(O2)C2CC3CC(C2)CC1C3 (centres unmarked)
8.7

Name the reported Survival (days) 10 mg/kg sc value associated with the compound O=C(NO)[C@H]1CC[C@@]2(CC1)OOC1(O2)C2CC3CC(C2)CC1C3 (some centres unmarked)
7.7

Name the reported Survival (days) 10 mg/kg sc value associated with the compound CC(C)(C)NC(=O)N[C@H]1CC[C@]2(CC1)OOC1(O2)C2CC3CC(C2)CC1C3 (some centres unmarked)
10.0
